The following proteins are shown together with reported Activity towards hGHQ40N (RFU/sec/µg), dansyl-cadaverine fluorescence kinetics values.
- Subject Of Test: hGHQ40N, P01241
- Sequence (P01241 27-217 Q66N): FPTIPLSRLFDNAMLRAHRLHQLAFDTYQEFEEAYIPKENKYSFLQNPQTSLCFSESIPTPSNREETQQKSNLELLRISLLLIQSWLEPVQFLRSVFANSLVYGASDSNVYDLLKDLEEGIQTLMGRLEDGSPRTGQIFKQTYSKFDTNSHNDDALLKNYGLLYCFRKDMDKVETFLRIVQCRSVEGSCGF
Please reply with the bare figure in RFU/sec/µg and do not write the unit itself.

| Protein | Value |
| --- | --- |
| Met-mTGase from S. ladakanum (protein) MDSDERVTPPAEPLDRMPDPYRPSYGRAETIVNNYIRKWQQVYSHRDGRKQQMTEEQREWLSYGCVGVTWVNSGQYPTNRLAFAFFDEDKYKNELKNGRPRSGETRAEFEGRVAKDSFDEAKGFQRARDVASVMNKALENAHDEGAYLDNLKKELANGNDALRNEDARSPFYSALRNTPSFKDRNGGNHDPSKMKAVIYSKHFWSGQDRSGSSDKRKYGDPEAFRPDRGTGLVDMSRDRNIPRSPTSPGESFVNFDYGWFGAQTEADADKTVWTHGNHYHAPNGSLGAMHVYESKFRNWSDGYSDFDRGAYVVTFVPKSWNTAPDKVKQGWP | 4.74 |
| Mature mTGase from Streptoverticillium ladakanum (protein) DSDERVTPPAEPLDRMPDPYRPSYGRAETIVNNYIRKWQQVYSHRDGRKQQMTEEQREWLSYGCVGVTWVNSGQYPTNRLAFAFFDEDKYKNELKNGRPRSGETRAEFEGRVAKDSFDEAKGFQRARDVASVMNKALENAHDEGAYLDNLKKELANGNDALRNEDARSPFYSALRNTPSFKDRNGGNHDPSKMKAVIYSKHFWSGQDRSGSSDKRKYGDPEAFRPDRGTGLVDMSRDRNIPRSPTSPGESFVNFDYGWFGAQTEADADKTVWTHGNHYHAPNGSLGAMHVYESKFRNWSDGYSDFDRGAYVVTFVPKSWNTAPDKVKQGWP | 3.55 |
| Met-mTGase from S. mobaraensis (protein) MDSDDRVTPPAEPLDRMPDPYRPSYGRAETVVNNYIRKWQQVYSHRDGRKQQMTEEQREWLSYGCVGVTWVNSGQYPTNRLAFASFDEDRFKNELKNGRPRSGETRAEFEGRVAKESFDEEKGFQRAREVASVMNRALENAHDESAYLDNLKKELANGNDALRNEDARSPFYSALRNTPSFKERNGGNHDPSRMKAVIYSKHFWSGQDRSSSADKRKYGDPDAFRPAPGTGLVDMSRDRNIPRSPTSPGEGFVNFDYGWFGAQTEADADKTVWTHGNHYHAPNGSLGAMHVYESKFRNWSEGYSDFDRGAYVITFIPKSWNTAPDKVKQGWP | 5.44 |
| GlyPro-mTGase from S. ladakanum (protein) GPDSDERVTPPAEPLDRMPDPYRPSYGRAETIVNNYIRKWQQVYSHRDGRKQQMTEEQREWLSYGCVGVTWVNSGQYPTNRLAFAFFDEDKYKNELKNGRPRSGETRAEFEGRVAKDSFDEAKGFQRARDVASVMNKALENAHDEGAYLDNLKKELANGNDALRNEDARSPFYSALRNTPSFKDRNGGNHDPSKMKAVIYSKHFWSGQDRSGSSDKRKYGDPEAFRPDRGTGLVDMSRDRNIPRSPTSPGESFVNFDYGWFGAQTEADADKTVWTHGNHYHAPNGSLGAMHVYESKFRNWSDGYSDFDRGAYVVTFVPKSWNTAPDKVKQGWP | 4.25 |
| AlaPro-mTGase from S. ladakanum (protein) APDSDERVTPPAEPLDRMPDPYRPSYGRAETIVNNYIRKWQQVYSHRDGRKQQMTEEQREWLSYGCVGVTWVNSGQYPTNRLAFAFFDEDKYKNELKNGRPRSGETRAEFEGRVAKDSFDEAKGFQRARDVASVMNKALENAHDEGAYLDNLKKELANGNDALRNEDARSPFYSALRNTPSFKDRNGGNHDPSKMKAVIYSKHFWSGQDRSGSSDKRKYGDPEAFRPDRGTGLVDMSRDRNIPRSPTSPGESFVNFDYGWFGAQTEADADKTVWTHGNHYHAPNGSLGAMHVYESKFRNWSDGYSDFDRGAYVVTFVPKSWNTAPDKVKQGWP | 6.91 |
| GlyPro-mTGase from S. mobaraensis (protein) GPDSDDRVTPPAEPLDRMPDPYRPSYGRAETVVNNYIRKWQQVYSHRDGRKQQMTEEQREWLSYGCVGVTWVNSGQYPTNRLAFASFDEDRFKNELKNGRPRSGETRAEFEGRVAKESFDEEKGFQRAREVASVMNRALENAHDESAYLDNLKKELANGNDALRNEDARSPFYSALRNTPSFKERNGGNHDPSRMKAVIYSKHFWSGQDRSSSADKRKYGDPDAFRPAPGTGLVDMSRDRNIPRSPTSPGEGFVNFDYGWFGAQTEADADKTVWTHGNHYHAPNGSLGAMHVYESKFRNWSEGYSDFDRGAYVITFIPKSWNTAPDKVKQGWP | 4.28 |

Then this protein:
Consider the protein shown here: AlaPro-mTGase from S. mobaraensis (protein) APDSDDRVTPPAEPLDRMPDPYRPSYGRAETVVNNYIRKWQQVYSHRDGRKQQMTEEQREWLSYGCVGVTWVNSGQYPTNRLAFASFDEDRFKNELKNGRPRSGETRAEFEGRVAKESFDEEKGFQRAREVASVMNRALENAHDESAYLDNLKKELANGNDALRNEDARSPFYSALRNTPSFKERNGGNHDPSRMKAVIYSKHFWSGQDRSSSADKRKYGDPDAFRPAPGTGLVDMSRDRNIPRSPTSPGEGFVNFDYGWFGAQTEADADKTVWTHGNHYHAPNGSLGAMHVYESKFRNWSEGYSDFDRGAYVITFIPKSWNTAPDKVKQGWP What is its recorded Activity towards hGHQ40N (RFU/sec/µg), dansyl-cadaverine fluorescence kinetics? 5.05
